Entry source: patent US9688764B2

biological target: T1, hPRLR.mFc (soluble dimeric human PRLR) (Homo sapiens, UniProt P16471); assay: Surface plasmon resonance (Biacore T200), mAb-capture format; assay type: binding; conditions: 37° C., antibody-capture format, analyte hPRLR.mFc
T1 construct: dimeric (hPRLR.mFc)
T1 sequence (P16471 with tags, fused parts or gaps): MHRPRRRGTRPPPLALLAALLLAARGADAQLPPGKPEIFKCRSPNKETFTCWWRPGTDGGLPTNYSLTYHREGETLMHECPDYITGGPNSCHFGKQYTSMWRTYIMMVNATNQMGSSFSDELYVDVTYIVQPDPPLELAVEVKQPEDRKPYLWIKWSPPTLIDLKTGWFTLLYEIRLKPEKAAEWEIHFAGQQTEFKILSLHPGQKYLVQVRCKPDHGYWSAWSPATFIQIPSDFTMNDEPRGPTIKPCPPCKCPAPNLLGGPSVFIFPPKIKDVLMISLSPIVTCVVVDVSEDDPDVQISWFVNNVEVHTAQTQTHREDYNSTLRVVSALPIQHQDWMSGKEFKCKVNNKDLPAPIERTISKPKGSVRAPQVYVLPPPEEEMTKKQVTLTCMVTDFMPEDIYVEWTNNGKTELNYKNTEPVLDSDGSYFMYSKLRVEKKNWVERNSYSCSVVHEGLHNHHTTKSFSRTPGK
value kind: Kd (nM)
# unit: nM | format: bare number

What value of Kd has been recorded for this entry: H1H6762P: anti-PRLR antibody, human IgG1 Fc; HCVR/LCVR SEQ ID NOs 2/10 (antibody, V domains shown, human IgG1 Fc) VH: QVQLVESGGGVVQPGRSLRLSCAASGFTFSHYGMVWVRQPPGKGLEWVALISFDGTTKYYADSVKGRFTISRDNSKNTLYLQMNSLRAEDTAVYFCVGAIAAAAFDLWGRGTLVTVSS VL: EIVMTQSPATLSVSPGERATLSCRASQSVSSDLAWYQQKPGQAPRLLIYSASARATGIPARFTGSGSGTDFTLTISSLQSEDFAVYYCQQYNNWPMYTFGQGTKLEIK 0.128

Quick one: Kd for H1H6953N: human IgG1 Fc form of H1M6953N; anti-PRLR; HCVR/LCVR SEQ ID NOs 274/282 (antibody, V domains shown, human IgG1 Fc) VH: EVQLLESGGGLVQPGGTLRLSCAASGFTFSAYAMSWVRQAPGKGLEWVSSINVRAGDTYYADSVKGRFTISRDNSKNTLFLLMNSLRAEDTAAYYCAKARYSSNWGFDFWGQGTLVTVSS VL: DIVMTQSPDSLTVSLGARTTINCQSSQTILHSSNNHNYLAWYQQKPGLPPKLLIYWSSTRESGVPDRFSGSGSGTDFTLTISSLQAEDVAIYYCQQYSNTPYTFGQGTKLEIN ? 0.116
